The measured values listed here are drawn from PubChem BioAssay (NCI).

System: MDA-MB-435
Field 'call' accepts active, inactive

Example cases with answers are listed next.
{"columns": ["compound", "assigned-class"],
 "data": [
  ["COc1cc(C(=O)/C=C/c2sc(Cl)nc2Cl)cc(OC)c1OC", "inactive"],
  ["NC1CCC(Nc2nc(NCc3ccc(-c4ccco4)nc3)c3ncn(C4CCCC4)c3n2)CC1 (stereo unspecified)", "active"],
  ["CC(=O)[O][Hg][c]1c(N)c(C)cc(C)c1F", "inactive"],
  ["O=c1n(CC2CO2)c(=O)n(CC2CO2)n1CC1CO1 (stereo unspecified)", "inactive"],
  ["O=[N+]([O-])c1cnc(Sc2ccncn2)s1", "inactive"]
]}

--- query ---
Query block: Per the records of this test, what outcome belongs to Cn1ccnc1C(=O)/C=C/c1ccc(CC(=O)Nc2ccc(Br)cc2)cc1 ?
Result block: inactive

* * *

Answer each item with its documented TGI.
Tested on: SF-268 CNS
test-protocol: NCI tumour cell line growth inhibition, 48 h

{"columns": ["compound", "TGI"],
 "data": [
  ["C[N+](C)(CCCn1ccnc1[N+](=O)[O-])CCCn1ccnc1[N+](=O)[O-]", "> 100 µM"]
]}

Need TGI for each of these compounds.
1. O=C1/C(=C/c2ccc([N+](=O)[O-])cc2)COc2ccc(O)c(O)c21
2. O=C(CN1CCN(c2cc3c(cc2F)c(=O)c(C(=O)N/N=C/c2ccccc2O)cn3C2CC2)CC1)N/N=C\c1ccccc1O

Result block:
["3.15 µM", "> 100 µM"]

Need TGI for each of these compounds.
1. COc1cc(NC(C)c2ccc3c(c2)OCCO3)cc(OC)c1OC (configuration not stated)
2. CC1=NN(c2nc(N)nc(/C(C#N)=C/c3ccccc3O)n2)C(C)(C)C1
3. CC1OC(OC2C(O[C@H]3CC[C@@H]4C(=CC[C@@H]5[C@@]4(C)C(=O)C[C@]4(C)[C@@H]([C@H](C)CC[C@@H](O)C(C)(C)O)CC[C@@]54C)C3(C)C)OC(CO)C(O)C2O)C(O)C(O)C1O (some centres not stated)
4. NC(=O)c1ccc(C(=O)Nc2ccc([As](=O)(O)O)cc2)cc1
5. O=C(Nc1ccc(F)cc1F)c1cc(I)ccc1O
6. Cc1cc2nc(C(Cl)Cl)nc(-c3ccc(Cl)cc3)n2n1
7. CSC1=C(C#N)C(=S)N=C(N)C1C(=O)Nc1ccc(C)cc1 (configuration not stated)
8. CCN(CC)CC(C(=O)Nc1c(C)cccc1C)/C(C)=N\NC(=O)C[N+](C)(C)C (configuration not stated)

Result block:
1: > 100 µM; 2: 37.1 µM; 3: > 100 µM; 4: > 100 µM; 5: 47.4 µM; 6: 4.47 µM; 7: > 100 µM; 8: > 100 µM

Need TGI for each of these compounds.
1. CC(=O)C(CN(C(C)C)C(C)C)C(c1ccccc1)c1c(O)c2ccccc2oc1=O (configuration not stated)
2. CC(=O)Nc1oc(C)c(C)c1S(=O)(=O)c1ccc(Cl)cc1
3. O=C(CCl)N1c2ccccc2Oc2ccc3ccccc3c21
4. O=C(OCc1ccccc1)N(CCCCN(CCCNC(=O)C(F)(F)F)C(=O)OCc1ccccc1)CCCNC(=O)C(F)(F)F
5. COc1ccc(-n2/c(=N/C(=S)N(C)C)ss/c2=N\C(=S)N(C)C)cc1

Result block:
> 100 µM
> 100 µM
2.94 µM
> 100 µM
> 100 µM

Need TGI for each of these compounds.
1. NC1c2c(Br)sc(N3CCCC3)c2C(=O)C1O (configuration not stated)
2. COc1ccc(-c2cc(=O)c3ccc(O)cc3o2)c(OC)c1OC
3. Cn1ccnc1C(=O)/C=C/c1ccc(CC(=O)Nc2ccc(Br)cc2)cc1
4. Cc1ccc(Nc2nc(=O)c3c4ccccc4n(C(=O)OC(C)(C)C)c3s2)cc1

Result block:
["> 50 µM", "> 100 µM", "13 µM", "59.3 µM"]
